Taken from patent US10035778B2.

target: Recombinant human integrin αvβ3 (Homo sapiens (Human), UniProt P05106+P06756); experiment: Solid Phase Receptor Assay (SPRA) for αvβ3 function; conditions: vitronectin-coated plate
Sequence (P06756 31-992): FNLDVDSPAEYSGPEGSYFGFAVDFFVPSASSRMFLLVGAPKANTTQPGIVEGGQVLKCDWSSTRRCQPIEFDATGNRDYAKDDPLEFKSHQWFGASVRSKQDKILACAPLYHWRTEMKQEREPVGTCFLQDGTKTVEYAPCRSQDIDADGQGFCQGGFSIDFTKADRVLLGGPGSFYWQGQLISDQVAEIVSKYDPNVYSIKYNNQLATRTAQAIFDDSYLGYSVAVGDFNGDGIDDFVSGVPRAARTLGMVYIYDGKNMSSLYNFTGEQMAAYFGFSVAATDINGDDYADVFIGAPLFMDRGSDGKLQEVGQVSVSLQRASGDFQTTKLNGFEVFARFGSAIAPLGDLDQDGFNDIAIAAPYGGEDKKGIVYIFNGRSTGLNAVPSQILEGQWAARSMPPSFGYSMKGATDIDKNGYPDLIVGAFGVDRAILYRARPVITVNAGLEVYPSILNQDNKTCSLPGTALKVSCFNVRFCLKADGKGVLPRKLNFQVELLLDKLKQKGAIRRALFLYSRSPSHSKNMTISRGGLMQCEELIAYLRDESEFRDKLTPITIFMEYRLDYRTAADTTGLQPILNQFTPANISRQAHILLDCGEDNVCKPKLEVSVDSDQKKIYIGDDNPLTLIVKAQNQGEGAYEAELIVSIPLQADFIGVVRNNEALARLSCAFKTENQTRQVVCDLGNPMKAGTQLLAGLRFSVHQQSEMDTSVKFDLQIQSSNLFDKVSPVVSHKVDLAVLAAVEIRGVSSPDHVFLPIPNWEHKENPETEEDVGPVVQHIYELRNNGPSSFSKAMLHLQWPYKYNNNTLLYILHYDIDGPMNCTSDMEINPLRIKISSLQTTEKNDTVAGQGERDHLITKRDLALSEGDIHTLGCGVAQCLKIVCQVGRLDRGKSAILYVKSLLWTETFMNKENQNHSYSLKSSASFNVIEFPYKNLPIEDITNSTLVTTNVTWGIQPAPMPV
Sequence (P05106 27-718): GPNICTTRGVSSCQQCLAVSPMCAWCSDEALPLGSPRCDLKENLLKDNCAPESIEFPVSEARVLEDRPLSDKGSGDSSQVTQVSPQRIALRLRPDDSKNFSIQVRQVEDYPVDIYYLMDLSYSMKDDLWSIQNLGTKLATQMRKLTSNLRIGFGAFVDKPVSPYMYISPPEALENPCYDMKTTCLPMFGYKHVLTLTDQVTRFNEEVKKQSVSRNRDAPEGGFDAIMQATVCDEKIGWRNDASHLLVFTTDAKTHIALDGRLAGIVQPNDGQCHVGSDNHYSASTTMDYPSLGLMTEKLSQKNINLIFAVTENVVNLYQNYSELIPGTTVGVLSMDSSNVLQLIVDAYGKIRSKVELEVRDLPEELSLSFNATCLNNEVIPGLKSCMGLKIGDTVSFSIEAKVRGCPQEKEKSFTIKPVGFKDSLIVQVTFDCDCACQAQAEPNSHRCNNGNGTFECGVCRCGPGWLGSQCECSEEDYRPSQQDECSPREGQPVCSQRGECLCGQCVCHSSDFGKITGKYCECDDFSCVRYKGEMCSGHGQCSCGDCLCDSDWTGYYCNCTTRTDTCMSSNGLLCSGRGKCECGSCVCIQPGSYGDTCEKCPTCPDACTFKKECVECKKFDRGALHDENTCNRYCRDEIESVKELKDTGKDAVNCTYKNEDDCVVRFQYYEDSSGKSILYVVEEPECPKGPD
result.type: IC50 (nM)

[
  {
    "compound": "Cc1ccc(O)c(C(CC(=O)O)NC(=O)CNC(=O)c2cc(O)cc(NC3=NCC(O)CN3)c2)c1 (stereo not shown) [Example C6, reference compound]",
    "IC50 / nM": 6
  }
]

[A] O=C(O)C[C@H](NC(=O)CNC(=O)c1cc(O)cc(NC2=NCC(O)CN2)c1)c1cc(Cl)cc(C(F)F)c1 (stereo partly shown)
[B] O=C(O)CC(NC(=O)CNC(=O)c1cc(O)cc(NC2=NCC(O)CN2)c1)c1cc(Br)cc(Br)c1O (stereo not shown) [Example C7, reference compound]
[C] Cc1cc(Cl)cc([C@@H](CC(=O)O)NC(=O)CNC(=O)c2cc(O)cc(NC3=NCC(O)CN3)c2)c1O (stereo partly shown) [Example C10, reference compound]
Rank the 3 compounds: largest IC50 first, smallest last. # format: label list in the order the request specifies
B, C, A
